List of growth values.
System: HCT-15 colon
Assay: NCI-60 one-dose screen, 48 h (100 = growth as untreated, 0 = no growth, -100 = all killed)
Settings: 10 µM unless noted
Procedure: Growth inhibition of the HCT-15 human tumor cell line is measured as a screen for anti-cancer activity. Cells are grown in 96 well plates and exposed to the test compound for 48 hours. Compounds are tested at a single concentration, which is 10^-5 M for most compounds. The reported endpoint is percent growth (GI% or GIPRCNT), where numbers from 0 - 100% represent growth inhibition, and numbers from -100% - 0 represent cell death. For example, a value of 40 represents 60% growth inhibition. […]
The panel holds about 83,000 compounds, 20% with a hit somewhere; the sample as a whole holds those more often. The source made the active and inactive calls. The calls were made as follows: active = growth percent below 10; inactive = the rest.

Below, each entry is followed by its recorded growth result.
{"Compound": "CCCCOCc1cc(CN2CCN(C)CC2)c(O)c2ncccc12", "growth": "25.6% (inactive)"}
{"Compound": "O=C(Cn1cc(COc2ncnc3c2cnn3-c2ccccc2)nn1)Nc1cccc2ccccc12", "growth": "96.9% (inactive)"}
{"Compound": "COc1cc2cc3c(=O)n4c(cc5cc(OC)ncc54)c(=O)n3c2cn1", "growth": "106% (inactive)"}
{"Compound": "COc1cc(C2C3=C(COC3=O)N(CCO)c3cc4c(cc32)OCCO4)cc(OC)c1O (stereo not given)", "growth": "49.4% (inactive)"}
{"Compound": "O=c1oc2ccc(Cl)cc2c(=O)n1-c1cc(C(F)(F)F)cc(C(F)(F)F)c1", "growth": "-5.03% (active)"}

Input line: Please look at this compound and report its growth: CN1C(=O)N(C)C2(c3ccccc3)n3c(s/c(=C\c4ccccc4)c3=O)=NNC12c1ccccc1 (stereo not given)
Output line: 89.5% (inactive)

Input line: Please look at this compound and report its growth: `O=C(CSc1ccc2nnc(-c3cccc(F)c3)n2n1)Nc1ccc2c(c1)OCO2`
Output line: 66.1% (inactive)

Input line: Please look at this compound and report its growth: O=C1CCC(N2C(=O)c3cccc(NCCCCCCOc4ccc(Nc5nccc(Nc6ccccc6)n5)cc4)c3C2=O)C(=O)N1 (stereo not given)
Output line: 86.7% (inactive)

Input line: Please look at this compound and report its growth: `CCCc1c(C)c2sc(=O)[nH]c2[nH]c1=O`
Output line: 103% (inactive)

Input line: Please look at this compound and report its growth: `O=c1oc2ccc(I)cc2c(=O)n1-c1ccc(Cl)cc1F`
Output line: 2.13% (active)

Input line: Please look at this compound and report its growth: `CN(O)c1nc(N(C)O)nc(N2CCOCC2)n1`
Output line: 22.5% (inactive)

Input line: Please look at this compound and report its growth: `Cc1cc(OC(=O)c2ccc([N+](=O)[O-])cc2)nc2[nH]c(=O)sc12`
Output line: 103% (inactive)

----------
Test system: MCF7 breast
Test: NCI-60 one-dose screen, 48 h (100 = growth as untreated, 0 = no growth, -100 = all killed)
Conditions: 10 µM
Experimental: Growth inhibition of the MCF7 human tumor cell line is measured as a screen for anti-cancer activity. Cells are grown in 96 well plates and exposed to the test compound for 48 hours. Compounds are tested at a single concentration, which is 10^-5 M for most compounds. The reported endpoint is percent growth (GI% or GIPRCNT), where numbers from 0 - 100% represent growth inhibition, and numbers from -100% - 0 represent cell death. For example, a value of 40 represents 60% growth inhibition. […]
The panel holds about 83,000 compounds, 20% with a hit somewhere; the sample as a whole holds those more often.
Criterion: growth strictly less than 80%. Met: Condition met. Not met: Condition not met.

Recorded results for 4 molecules are shown here.
{"Molecule": "O=C(N/N=C/c1ccccc1O)C(=O)Nc1ccc(F)cc1", "Cat": "Condition met"}
{"Molecule": "Cc1ccc(S(=O)c2ccc([N+](=O)[O-])c3nonc23)cc1 (stereo not given)", "Cat": "Condition not met"}
{"Molecule": "CCCCCCn1c(=N)n(CC(O)COc2cccc(C)c2)c2ccccc21 (stereo not given)", "Cat": "Condition met"}
{"Molecule": "COC(=O)/C(CCC=C(C)C)=C1\\[C@@H](OC(C)=O)C[C@@]2(C)[C@H]1C[C@@H](O)[C@H]1[C@@]3(C)CC[C@H](NC(=O)c4cnccn4)[C@@H](C)[C@@H]3CC[C@@]12C", "Cat": "Condition not met"}

Attention now turns to another entry.
Input line: In the record for CSc1nc2c(c(=O)n1C)N=C1c3ccccc3C(=O)C1C(c1ccccc1)N2 (stereo not given) , is growth less than 80%?
Output line: Condition met

----------
List of growth values.
System: SF-539 CNS
Assay: NCI-60 one-dose screen, 48 h (100 = growth as untreated, 0 = no growth, -100 = all killed)
Conditions: 10 µM unless noted
Compounds without any hit were thinned out: in the full panel of roughly 83,000, 20% have a hit.
Write down the numeric answer in % and omit the unit.

Below, each entry is followed by its recorded growth result.
{"Molecule": "O=C1Nc2ccccc2/C1=C/c1ccc[nH]1", "growth [%]": 86.6}
{"Molecule": "O=C(CN1C=NC2C(N3CCOCC3)=NC=NC21)c1ccc(Br)cc1 (stereo unspecified)", "growth [%]": 100}
{"Molecule": "O=C(Nc1ccc(F)c(Cl)c1)Nc1ccc(Cl)c(Cl)c1", "growth [%]": 80.3}
{"Molecule": "CSc1nc2c(c(=O)n1C)N=C1c3ccccc3C(=O)C1C(c1ccccc1)N2 (stereo unspecified)", "growth [%]": 68}
{"Molecule": "CCOc1ccc2c(c1)CN(Cc1ccc(Cl)cc1)CO2", "growth [%]": 1.31}

Input line: Please look at this molecule and report its growth: `O=C(Nc1ccc(Cl)cc1F)c1cc(F)ccc1O`
Output line: 4.32

Input line: Please look at this molecule and report its growth: `Nc1no[n+]([O-])c1-c1nnc2c(n1)-c1ccccc1C2=O`
Output line: 81.8

Input line: Please look at this molecule and report its growth: `O=c1oc2ccc(F)cc2c(=O)n1-c1ccc(Cl)cc1F`
Output line: 4.31

Input line: Please look at this molecule and report its growth: `COc1ccc(/C=C/C(=O)c2c(C)nc3ccccc3c2/C=C/c2ccccc2)cc1O`
Output line: 81.7

Input line: Please look at this molecule and report its growth: `CN1CCN(Cc2ccc(NC(=O)c3[nH]ncc3Nc3cc(OC4CCCC4)ncn3)cc2)CC1`
Output line: 30.3

Input line: Please look at this molecule and report its growth: `CN1CCN(Cc2ccc(C(=O)Nc3cncc(C#Cc4cnc5cccnn45)c3)cc2C(F)(F)F)CC1`
Output line: 32.9

Input line: Please look at this molecule and report its growth: COC(=O)C1(C)COP(=O)(Nc2ccc(OC)cc2)OC1 (stereo unspecified)
Output line: 104

----------
System: OVCAR-4 ovarian
Assay: NCI-60 one-dose screen, 48 h (100 = growth as untreated, 0 = no growth, -100 = all killed)
Conditions: 10 µM unless noted
Compounds without any hit were thinned out: in the full panel of roughly 83,000, 20% have a hit.
List of growth values.
Write down the numeric answer in % and omit the unit.

Below, each entry is followed by its recorded growth result.
{"Compound": "NC1C(N)C(N)C1N (stereo unspecified)", "Reading unit": "%", "growth": 105}
{"Compound": "COc1c2ccoc2c(/C=C/C=O)c2oc(-c3ccccc3)cc(=O)c12", "Reading unit": "%", "growth": 57.8}

Input line: Please look at this compound and report its growth: `NC1(N2SC(S)=C3CCCC=C32)CCCCC1`
Output line: 107

Input line: Please look at this compound and report its growth: `O=c1oc2ccc(I)cc2c(=O)n1-c1ccc(Cl)cc1F`
Output line: 15.8

Input line: Please look at this compound and report its growth: `CC/C(=C(\CC)c1ccc(OCC[N+](C)(C)C)cc1)c1ccc(OC)cc1`
Output line: 68.5

----------
System: SK-MEL-2 melanoma
Assay: NCI-60 one-dose screen, 48 h
Conditions: 10 µM unless noted
The panel holds about 83,000 compounds, 20% with a hit somewhere; the sample as a whole holds those more often. The source made the active and inactive calls. Rule for the calls: active = growth percent below 10; inactive = the rest.
Allowed answers: YES for active, NO for inactive

Recorded results for 5 compounds are shown here.
{"Compound": "CCCCCCC(O)(c1ccc(F)cc1)C(CN1CCOCC1)c1ccccc1 (stereo unspecified)", "Cat": "NO"}
{"Compound": "O=C(Nc1ccc(N2CCNCC2)cc1)c1[nH]ncc1Nc1ncnc2sc3c(c12)CCC3", "Cat": "YES"}
{"Compound": "N#C/C(=C\\c1c(-c2ccccc2)[nH]c2ccccc12)C(=O)c1ccccc1", "Cat": "NO"}
{"Compound": "NC1C(N)C(N)C1N (stereo unspecified)", "Cat": "NO"}
{"Compound": "NC(CCc1nc2ccccc2c(=O)[nH]1)C(=O)O (stereo unspecified)", "Cat": "NO"}

Input line: What call does the record list for `CN(C)/C=C1\SC(=Nc2ccc(Cl)cc2)NC1=O` ?
Output line: NO

Input line: What call does the record list for OC(CNC1CCCCC1)Cn1c2ccc(I)cc2c2cc(I)ccc21 (stereo unspecified) ?
Output line: NO

Input line: What call does the record list for `O=c1nc2sc3nc4ccccc4cc3cc-2s1` ?
Output line: NO

Input line: What call does the record list for O=C(c1nc2ccccc2[nH]1)C1[C@@H](c2cccc(O)c2)C2CC3CCCCC3N2[C@@]12C(=O)Nc1cc(Cl)ccc12 (stereo partly specified) ?
Output line: NO

Input line: What call does the record list for `COc1cc(NC(=O)CCSc2nc3ccccc3c(=O)n2Cc2ccccc2)cc(OC)c1OC` ?
Output line: NO

Input line: What call does the record list for `Cc1nc2ccccc2c(/C=C/c2ccccc2)c1C(=O)/C=C/c1ccc(Cl)cc1` ?
Output line: NO
